Molecular target: Thrombin (Oryctolagus cuniculus) (UniProt Q28731)
Assay: Inhibition of thrombin in New Zealand rabbit plasma assessed as activated partial thromboplastin time at 100 uM after 3 mins by coagulometry
APTT values by entry
Your answer should be a plain number; it is taken to be in s.

- smiles-string: "COc1c(-c2ccc(O)c(O)c2)oc2cc(O)cc(O)c2c1=O"
  unit-of-measure: "s"
  APTT: 50.2

# next molecule below
Give the measured APTT of "COc1cc(O)cc2oc(-c3ccc(O)c(O)c3)c(O)c(=O)c12" .
49.2

* * *

Biological target: Thrombin (Oryctolagus cuniculus) (UniProt Q28731)
Assay: Inhibition of thrombin in New Zealand rabbit plasma assessed as fibrinogen level at 100 uM by coagulometry
Activity values by entry
The answer consists of two parts: a number and, after it, its unit.

Example molecules with recorded Activity:
- smiles-string: "COc1ccc(-c2oc3cc(O)cc(O)c3c(=O)c2O)cc1O"
  measurement-target: "Thrombin (Oryctolagus cuniculus) (UniProt Q28731)"
  Activity: "7.5 g/L"
- smiles-string: "COc1ccc(-c2oc3cc(O)cc(O)c3c(=O)c2O)cc1OC"
  measurement-target: "Thrombin (Oryctolagus cuniculus) (UniProt Q28731)"
  Activity: "6.6 g/L"
- smiles-string: "COc1cc(O)cc2oc(-c3ccc(O)c(O)c3)c(O)c(=O)c12"
  measurement-target: "Thrombin (Oryctolagus cuniculus) (UniProt Q28731)"
  Activity: "5 g/L"
- smiles-string: "COc1c(-c2ccc(O)c(O)c2)oc2cc(O)cc(OC)c2c1=O"
  measurement-target: "Thrombin (Oryctolagus cuniculus) (UniProt Q28731)"
  Activity: "5.4 g/L"
- smiles-string: "O=c1c(O)c(-c2ccc(O)c(O)c2)oc2cc(O)cc(O)c12"
  measurement-target: "Thrombin (Oryctolagus cuniculus) (UniProt Q28731)"
  Activity: "5.8 g/L"

Give the measured Activity of "COc1cc(-c2oc3cc(O)cc(OC)c3c(=O)c2O)ccc1O" .
6.2 g/L

Give the measured Activity of "COc1cc(OC)c2c(=O)c(O)c(-c3ccc(O)c(O)c3)oc2c1" .
5.1 g/L

Give the measured Activity of "COc1c(-c2ccc(O)c(O)c2)oc2cc(O)cc(O)c2c1=O" .
4.7 g/L

Give the measured Activity of "COc1ccc(-c2oc3cc(O)cc(OC)c3c(=O)c2O)cc1OC" .
7.9 g/L

Give the measured Activity of "COc1cc(O)c2c(=O)c(OC)c(-c3ccc(O)c(O)c3)oc2c1" .
7.3 g/L

* * *

Target: Thrombin (Oryctolagus cuniculus) (UniProt Q28731)
Experiment: Inhibition of thrombin in New Zealand rabbit plasma assessed as thrombin time at 100 uM after 3 mins by coagulometry
experimental-readout: TT (s)
Your answer should be a plain number; it is taken to be in s.

Example compounds with recorded TT:
- smiles-string: "COc1ccc(-c2oc3cc(O)cc(OC)c3c(=O)c2O)cc1OC"
  TT / s: 15.9
- smiles-string: "COc1ccc(-c2oc3cc(O)cc(O)c3c(=O)c2O)cc1O"
  TT / s: 16.6
- smiles-string: "COc1cc(OC)c2c(=O)c(O)c(-c3ccc(O)c(O)c3)oc2c1"
  TT / s: 21.8
- smiles-string: "COc1cc(-c2oc3cc(O)cc(OC)c3c(=O)c2O)ccc1O"
  TT / s: 22.3

# next compound below
Give the measured TT of "COc1cc(O)c2c(=O)c(O)c(-c3ccc(OC)c(O)c3)oc2c1" .
14.8
